molecular target: hGPR40 (Homo sapiens); experiment: GPR40 Inositol Phosphate Turnover (IP1) Assay; format: cell-based; set-up: expressed in transfected cells; host or cells: HEK cells stably expressing the aequorin reporter; conditions: HEK cells stably expressing human GPR40; 0% serum; read-out: hGPR40 IP1 EC50 (0% serum)
Sequence (O14842 whole entry): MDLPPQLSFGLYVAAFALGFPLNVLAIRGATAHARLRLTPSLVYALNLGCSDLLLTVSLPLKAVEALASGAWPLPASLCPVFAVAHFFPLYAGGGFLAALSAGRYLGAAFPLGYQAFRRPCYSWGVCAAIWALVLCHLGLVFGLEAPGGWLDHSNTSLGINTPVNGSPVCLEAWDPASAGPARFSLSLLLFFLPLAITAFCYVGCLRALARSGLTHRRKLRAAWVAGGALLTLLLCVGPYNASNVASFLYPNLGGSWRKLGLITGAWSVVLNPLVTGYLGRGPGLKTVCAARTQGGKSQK
measured.parameter: EC50 (nM)

>>> df
                                   compound  measured_parameter  numeric_result
0  Cc1nc(OCC(F)(F)C(F)(F)F)ccc1-c1ccc(F)c(COc2cc3c(cn2)C2C(C3)C2C(=O)O)c1 (stereo not shown)                EC50              56
1  Cc1nc(N2CCC3(C=Cc4ccccc43)CC2)nc(C)c1-c1ccc(F)c(COc2cc3c(cn2)C2C(C3)C2C(=O)O)c1 (stereo not shown)                EC50             180
2  Cc1nc(N2CC(CS(C)(=O)=O)C2)ccc1-c1ccc(F)c(COc2cc3c(cn2)[C@H]2[C@@H](C3)[C@@H]2C(=O)O)c1                EC50              28
3  CS(=O)(=O)CCCOc1ccc(-c2ccc(F)c(COc3cc4c(cn3)[C@H]3[C@@H](C4)[C@@H]3C(=O)O)n2)c(C(F)(F)F)c1                EC50              53
4  Cc1cc(OCC2CC(F)(F)C2)cc(C)c1-c1cccc(COc2cc3c(cn2)[C@H]2[C@@H](C3)[C@@H]2C(=O)O)c1                EC50              55
5  Cc1cc(OCCCS(C)(=O)=O)ncc1-c1ccc(F)c(COc2cc3c(cn2)[C@H]2[C@@H](C3)[C@@H]2C(=O)O)c1                EC50             4.8
6  Cc1nc(OCCCS(C)(=O)=O)sc1-c1ccc(F)c(COc2cc3c(cn2)C2C(C3)C2C(=O)O)c1 (stereo not shown)                EC50              34
7  Cc1cccc(C)c1-c1ccc(F)c(COc2cc3c(cn2)[C@H]2[C@@H](C3)[C@@H]2C(=O)O)c1                EC50              26
8  Cc1cc(OCCCS(C)(=O)=O)c(I)c(C)c1-c1cccc(COc2cc3c(cn2)C2C(C3)C2C(=O)O)c1 (stereo not shown)                EC50              14
9  Cc1cc(OCCC2CC(F)(F)C2)cc(C)c1-c1cccc(COc2cc3c(cn2)[C@H]2[C@@H](C3)[C@@H]2C(=O)O)c1                EC50              57

---

biological target: UniProtKB O14842; test: GPR40 FLIPR assay (agonist-induced calcium mobilization); assay type: cell-based; design: expressed in transfected cells; host or cells: CHO cells stably expressing NFAT BLA (beta-lactamase); conditions: GPR40/CHO NFAT BLA cells;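 also: calcium mobilization in the cells read as fluorescence of fluo-4 AM loaded cells on FLIPR after compound addition, cells preloaded with dye 100 min at room temperature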
pEC50: −log10 of the molar value.
measured.parameter: pEC50

>>> print(df.to_string())
                                   molecule  numeric_result
0  Cc1c(COc2cc3c(cn2)C2C(C3)C2C(=O)O)cccc1-c1ccccc1C(F)(F)F (stereo not shown)            7.52
1  Cc1cc(OCCCS(C)(=O)=O)nc(C)c1-c1cccc(COc2cc3c(cn2)[C@H]2[C@@H](C3)[C@@H]2C(=O)O)c1            7.30
2  CC(C)(O)CCOc1ccc(-c2cccc(COc3cc4c(cn3)[C@H]3[C@@H](C4)[C@@H]3C(=O)O)c2)c(C(F)(F)F)c1            7.85
3  Cc1nc(OCCCS(C)(=O)=O)sc1-c1ccc(F)c(COc2cc3c(cn2)C2C(C3)C2C(=O)O)c1 (stereo not shown)            7.74
4  O=C(O)C1C2Cc3cc(OCc4cc(-c5cc(Cl)cc(C(F)(F)F)c5)ccc4F)ncc3C21 (stereo not shown)            7.17
5  Cc1cc(OC[C@H](C)O)cc(C)c1-c1ccc(F)c(COc2cc3c(cn2)[C@H]2[C@@H](C3)[C@@H]2C(=O)O)c1            7.40
6  Cc1nc(OCC(F)(F)C(F)(F)F)ccc1-c1ccc(F)c(COc2cc3c(cn2)C2C(C3)C2C(=O)O)c1 (stereo not shown)            8.00
7  Cc1cccc(C)c1-c1ccc(F)c(COc2cc3c(cn2)[C@H]2[C@@H](C3)[C@@H]2C(=O)O)c1            7.31
8  Cc1cc(OCCCS(C)(=O)=O)nc(C)c1-c1ccc(F)c(COc2cc3c(cn2)[C@H]2[C@@H](C3)[C@@H]2C(=O)O)c1            7.46
9  Cc1nc(N2CCC3(C=Cc4ccccc43)CC2)nc(C)c1-c1ccc(F)c(COc2cc3c(cn2)C2C(C3)C2C(=O)O)c1 (stereo not shown)            7.35
